# measured-on: DYRK1A (HT-497, 6×His tagged rat truncated DYRK1A isoform X1 residues 1-497) (Rattus norvegicus (Rat))
# method: DYRK1A ELISA assay (HT-PRD phosphorylation)
# measurement-context: 100 µM ATP, 5 ng HT-497, 30 min at 30° C.
result-type: IC50

INSERT INTO results (item_smiles, result) VALUES
  ('CCNC(=O)Oc1cc(C(=O)O[C@@H]2Cc3c(O)cc(O)cc3O[C@@H]2c2cc(O)c(O)c(O)c2)cc(O)c1O', '> 0.1 µM');

Now take the following compound into account.
## Task Query: IC50; subject: COc1c(O)c(O)c(F)c(C(=O)O[C@@H]2Cc3c(O)cc(O)cc3O[C@H]2c2cc(O)c(O)c(O)c2)c1F
## Result > 0.1 µM
